The measured values listed here are drawn from patent US20250250357A1.

- ASSAY TARGET: T1, human MSLN-R2-his protein (human, UniProt Q13421 391-486)
- T1 construct: Region 2 of human MSLN, His-tagged; also called human MSLN-R2 protein; hMSLN-R2-his; not shown: His tag
- T1 sequence (Q13421 other isoform, or with tags, fused parts or gaps): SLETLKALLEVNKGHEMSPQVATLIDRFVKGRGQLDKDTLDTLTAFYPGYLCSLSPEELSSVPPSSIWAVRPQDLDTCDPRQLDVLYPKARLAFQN
- ASSAY REMARKS: ELISA, coated MSLN-R2;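 note: chimeric antibodies bound to blocked coated plates for 2 h at 37 °C, TMB colour development stopped with HCl, with a negative control antibody for comparison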
Here the recorded OD450 at 0.0001 nM is given for each entry.
Answer in OD450, number only, no unit symbol.

Worked cases, answers included:
BINDER	MEASURED RESULT
S009-F1.2.12 (antibody, human IgG1, kappa, V domains shown) VH: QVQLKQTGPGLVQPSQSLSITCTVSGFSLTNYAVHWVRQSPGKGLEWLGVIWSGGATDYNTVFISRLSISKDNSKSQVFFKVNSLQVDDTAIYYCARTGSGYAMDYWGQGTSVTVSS VL: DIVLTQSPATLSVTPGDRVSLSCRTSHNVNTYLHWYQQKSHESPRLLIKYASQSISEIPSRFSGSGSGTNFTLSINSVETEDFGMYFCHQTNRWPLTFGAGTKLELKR	0.05
S009-F1.35.24 (antibody, human IgG1, kappa, V domains shown, Human-murine chimeric antibody, human IgG1/kappa constant regions) VH: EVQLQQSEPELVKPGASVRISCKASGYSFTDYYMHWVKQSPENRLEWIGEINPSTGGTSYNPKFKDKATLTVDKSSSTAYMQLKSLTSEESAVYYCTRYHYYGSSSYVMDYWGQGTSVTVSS VL: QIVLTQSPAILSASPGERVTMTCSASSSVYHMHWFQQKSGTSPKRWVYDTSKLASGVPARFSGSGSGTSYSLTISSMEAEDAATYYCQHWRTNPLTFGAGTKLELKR	0.04

In plain terms, S009-F1.56.1 (antibody, human IgG1, kappa, V domains shown, Human-murine chimeric antibody, human IgG1/kappa constant regions) VH: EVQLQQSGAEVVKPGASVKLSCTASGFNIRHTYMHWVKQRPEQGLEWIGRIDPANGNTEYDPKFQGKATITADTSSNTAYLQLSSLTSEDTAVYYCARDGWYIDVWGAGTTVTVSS VL: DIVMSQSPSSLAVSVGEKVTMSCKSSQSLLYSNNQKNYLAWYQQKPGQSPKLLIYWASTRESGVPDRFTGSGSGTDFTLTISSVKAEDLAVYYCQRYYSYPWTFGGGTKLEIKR has a documented OD450 at 0.0001 nM of 0.04
